Attribution: paper PMC5540273

This listing pairs compounds with measured %Inh.
Tested on: BRAF;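 also: KINOMEscan kinase panel screen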
Conditions: concentration: 1 μM, replicates: in singlicate; n = 1
Dear colleague, please return just the value in %, with no unit written.

Ask | Input Cl.Cl.c1ccc(-c2cc3ccncc3cc2OC2CCNCC2)cc1 [GSK1122999] , output reported %Inh.
Reply | 0

Further cases:
Ask | Provide only the value of recorded %Inh for CSc1nn2c(=O)cc(N3CCOCC3)nc2n1Cc1cccc(Cl)c1Cl [GSK2347225]
Reply | 0

Ask | Return %Inh (reported value) for this compound: Cl.c1ccc(Cn2ccc3cc(Nc4ncnc5ccccc45)ccc32)cc1 [GW275568]
Reply | 0

Ask | Retrieve %Inh measured for CS(=O)(=O)CCNCc1ccc(-c2ccc3ncnc(Nc4ccc(OCc5ccccc5)c(Cl)c4)c3c2)o1.Cl [GW574783] and print it.
Reply | 9

Ask | Specify %Inh for `Fc1cccc(COc2ccc(Nc3ncnc4cc[nH]c34)cc2Cl)c1` and stop.
Reply | 0
